Where these numbers come from: paper PMC5059489

List of GSTO substrate assay % Inhibition at 10 µM values.
- Target system: GSTO1 (Homo sapiens)
- Sequence (P78417 1-241): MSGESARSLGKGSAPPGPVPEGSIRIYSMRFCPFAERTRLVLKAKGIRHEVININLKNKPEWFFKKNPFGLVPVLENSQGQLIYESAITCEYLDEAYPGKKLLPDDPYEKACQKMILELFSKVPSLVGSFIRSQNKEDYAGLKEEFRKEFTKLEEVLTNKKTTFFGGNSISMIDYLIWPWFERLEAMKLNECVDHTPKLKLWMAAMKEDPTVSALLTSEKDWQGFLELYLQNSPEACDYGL
- Assay text: GSTO1 substrate assay (reduction of 4-NPG)
- Settings: 10 µM
Express the result in % but write the number alone.

These recorded examples may help you get a feel for the data.
1) O=C(CCl)N1CCN(S(=O)(=O)C=Cc2ccccc2)CC1 | 2.4
2) CCN(CC)S(=O)(=O)c1ccc(CNC(=O)CCl)cc1 | 86.4
3) COCCN(C(=O)CCl)c1c(N)n(Cc2ccccc2)c(=O)[nH]c1=O | 14.2
4) COc1ccc(-c2csc(NC(=O)CCl)n2)c(O)c1 | 34.0
5) Cc1c(-c2ccccc2)sc(NC(=O)CCl)c1C(=O)N1CCOCC1 | 87.8

q: Quick one: GSTO substrate assay % Inhibition at 10 µM of CCOC(=O)c1c(NC(=O)CCl)sc(Cc2ccc3c(c2)OCO3)c1C ?
a: 25.9

q: Quick one: GSTO substrate assay % Inhibition at 10 µM of CC1CCc2c(sc(NC(=O)CCl)c2C(N)=O)C1 (centres unmarked) ?
a: 78.7

----------
- Target system: GSTO1 (Homo sapiens, UniProt P78417)
- Assay text: GSTO1 substrate assay (reduction of 4-NPG)
- Settings: 10 µM
List of GSTO substrate assay % Inhibition at 10 µM values.
Express the result in % but write the number alone.

1) Cc1ccc(C)c(-n2nc(C)cc2NC(=O)CCl)c1 | 0.5
2) O=C(CCl)N1CCN(S(=O)(=O)c2ccc(F)c(F)c2)CC1 | 91.8
3) CN(Cc1cnn(-c2ccccc2)c1)C(=O)CCl | 99.5
4) C=CCN(C(=O)CCl)c1nc(-c2ccc(Cl)c(Cl)c2)cs1 | 5.0
5) C=CCSc1ccccc1NC(=O)CCl | 96.3
6) O=C(CCl)Nc1ccccc1N1CCOCC1 | -8.4
7) CCOC(=O)c1cc(C(C)C)sc1NC(=O)CCl | 3.8
8) NC(=O)CCN(Cc1ccccc1)C(=O)CCl | 89.1

q: Identify the measured GSTO substrate assay % Inhibition at 10 µM of CC(NC(=O)CCl)c1ccc2c(c1)OCO2 (stereo not drawn) for GSTO1 (Homo sapiens, UniProt P78417).
a: 12.5

q: Identify the measured GSTO substrate assay % Inhibition at 10 µM of CC(C)C(NC(=O)CCl)c1cccs1 (stereo not drawn) for GSTO1 (Homo sapiens, UniProt P78417).
a: 42.0

q: Identify the measured GSTO substrate assay % Inhibition at 10 µM of CCOC(=O)c1c(NC(=O)CCl)sc(Cl)c1-c1ccccc1 for GSTO1 (Homo sapiens, UniProt P78417).
a: 13.9

q: Identify the measured GSTO substrate assay % Inhibition at 10 µM of CN(C)C(CNC(=O)CCl)c1ccccc1 (stereo not drawn) for GSTO1 (Homo sapiens, UniProt P78417).
a: 83.2
